- assay_overview: Metabolic stability in mouse liver microsomes assessed as clearance at 10 uM preincubated for 5 mins followed by NADPH addition by LC-MS/MS analysis
- Type: ADME, Microsome
- particulars: read-out: CLH
measured_quantity: microsomal CLint at 10 µM (µL/min/mg)
# value in µL/min/mg; strip the unit string

Sample O=C(Cc1cccc(OC(F)(F)F)c1)Nc1ccc(CCCCc2nnc(NC(=O)Cc3ccccn3)s2)nn1 ; microsomal CLint at 10 µM observed: 12.3

Sample O=C1Cc2cccc(c2)OCC/C=C/CCOc2cccc(c2)CC(=O)Nc2nnc(s2)CCCCc2ccc(nn2)N1 ; microsomal CLint at 10 µM observed: 7.6

---

Would you mind telling me the reported fraction unbound of each entry?
- assay_overview: Free plasma protein in mouse
- Format: ADME, cell-free

Sample O=C(Cc1cccc(OC(F)(F)F)c1)Nc1ccc(CCCCc2nnc(NC(=O)Cc3ccccn3)s2)nn1 ; fraction unbound observed: 0.103

Sample O=C1Cc2cccc(c2)OCC/C=C/CCOc2cccc(c2)CC(=O)Nc2nnc(s2)CCCCc2ccc(nn2)N1 ; fraction unbound observed: 0.129

---

- assay_overview: Clearance in Sprague-Dawley rat at 200 mg/kg, po measured upto 72 hrs by LC-MS/MS analysis
- Assay type: ADME, organism-based
- particulars: Sprague-Dawley, in vivo
measured_quantity: CL/F (mL/min/kg)
# value in mL/min/kg; strip the unit string

Sample O=C(Cc1cccc(OC(F)(F)F)c1)Nc1ccc(CCCCc2nnc(NC(=O)Cc3ccccn3)s2)nn1 ; CL/F observed: 187

---

- assay_overview: Half life in Sprague-Dawley rat at 200 mg/kg, po measured upto 72 hrs by LC-MS/MS analysis
- Type: ADME, organism-based
- particulars: in vivo
Would you mind telling me the reported half-life of each entry?
# value in h; strip the unit string

Sample O=C(Cc1cccc(OC(F)(F)F)c1)Nc1ccc(CCCCc2nnc(NC(=O)Cc3ccccn3)s2)nn1 ; half-life observed: 3.2

Sample O=C1Cc2cccc(c2)OCC/C=C/CCOc2cccc(c2)CC(=O)Nc2nnc(s2)CCCCc2ccc(nn2)N1 ; half-life observed: 5.7

---

- assay_overview: AUC(0 to t) in Sprague-Dawley rat at 200 mg/kg, po measured upto 72 hrs by LC-MS/MS analysis
- Type: ADME, organism-based
- Set-up: route oral, dose 200 mg/kg, time <=72
- particulars: in vivo
measured_quantity: AUC(0-t) at 72 h (ng·h/mL)
# value in ng·h/mL; strip the unit string

Sample O=C1Cc2cccc(c2)OCC/C=C/CCOc2cccc(c2)CC(=O)Nc2nnc(s2)CCCCc2ccc(nn2)N1 ; AUC(0-t) at 72 h observed: 5920

Sample O=C(Cc1cccc(OC(F)(F)F)c1)Nc1ccc(CCCCc2nnc(NC(=O)Cc3ccccn3)s2)nn1 ; AUC(0-t) at 72 h observed: 18900

---

Would you mind telling me the reported IC50 of each entry?
- tested_on: Glutaminase kidney isoform, mitochondrial (Homo sapiens, UniProt O94925)
- Sequence (O94925 whole entry, canonical isoform): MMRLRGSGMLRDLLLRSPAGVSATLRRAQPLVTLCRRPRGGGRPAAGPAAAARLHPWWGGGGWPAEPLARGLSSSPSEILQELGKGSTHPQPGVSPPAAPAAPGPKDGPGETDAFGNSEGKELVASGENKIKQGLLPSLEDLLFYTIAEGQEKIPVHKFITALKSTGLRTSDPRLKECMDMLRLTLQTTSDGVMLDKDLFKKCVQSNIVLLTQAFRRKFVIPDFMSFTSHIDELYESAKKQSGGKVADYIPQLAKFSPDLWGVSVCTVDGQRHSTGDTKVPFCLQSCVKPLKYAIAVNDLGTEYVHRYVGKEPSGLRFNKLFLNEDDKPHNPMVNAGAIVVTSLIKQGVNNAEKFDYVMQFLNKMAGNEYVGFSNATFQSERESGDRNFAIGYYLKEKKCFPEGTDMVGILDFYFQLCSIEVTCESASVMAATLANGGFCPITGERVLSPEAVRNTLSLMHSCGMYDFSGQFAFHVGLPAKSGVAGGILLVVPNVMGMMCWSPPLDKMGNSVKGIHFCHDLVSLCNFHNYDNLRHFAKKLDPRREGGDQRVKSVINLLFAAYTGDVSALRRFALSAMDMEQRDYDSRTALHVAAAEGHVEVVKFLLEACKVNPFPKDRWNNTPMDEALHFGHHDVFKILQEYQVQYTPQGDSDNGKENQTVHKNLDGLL
- assay_overview: Inhibition of recombinant human GLS1 expressed in Escherichia coli strain BL21 (DE3) preincubated for 10 mins before glutamine addition and measured after 60 mins by bovine liver glutamate dehydrogenase based coupled enzyme assay
# value in nM; strip the unit string

For the compound O=C1CCc2cccc(c2)OCCCC/C=C/CCCC(=O)Nc2nnc(s2)CCCCc2ccc(nn2)N1 , the measured IC50 on Glutaminase kidney isoform, mitochondrial (Homo sapiens, UniProt O94925) was 25

For the compound O=C1Cc2ccc(cc2)OCC/C=C/CCOc2ccc(cc2)CC(=O)Nc2nnc(s2)CCCCc2nnc(s2)N1 , the measured IC50 on Glutaminase kidney isoform, mitochondrial (Homo sapiens, UniProt O94925) was 80

For the compound O=C1CCCC/C=C/CCCCOc2cccc(c2)CCC(=O)Nc2nnc(s2)CCCCc2ccc(nn2)N1 , the measured IC50 on Glutaminase kidney isoform, mitochondrial (Homo sapiens, UniProt O94925) was 123

For the compound O=C1Cc2cccc(c2)OCCC/C=C/CCCOc2cccc(c2)CC(=O)Nc2nnc(s2)CCCCc2ccc(nn2)N1 , the measured IC50 on Glutaminase kidney isoform, mitochondrial (Homo sapiens, UniProt O94925) was 28
